Cited source for all entries: ChEMBL document CHEMBL1811865

Let's look at some molecules and their measured IC50.
TARGET ENTITY: Gamma-secretase
METHOD: Modulation of gamma-secretase activity in human H4 cells expressing APP695 assessed as increase in amyloid beta40 production after 20 to 24 hrs by liquid phase electrochemiluminescence assay
Assay type: cell-based

| MOLECULE | IC50 |
| --- | --- |
| CCCCCCCCn1c2ccccc2c2ccc(OC3=C(O)COC3=O)cc21 | > 80 µM |
| CCCCCCCCn1c2ccccc2c2ccc(OCCC(=O)O)cc21 | > 80 µM |
| CCCCCCCCn1c2ccccc2c2ccc(OC(C)(C)C(=O)O)cc21 | > 40 µM |
| CCCCCCCCn1c2ccc(Cl)cc2c2ccc(C(C)C(=O)O)cc21 (stereo unspecified) | > 40 µM |
| CCCCCCCCn1c2ccccc2c2ccc(OCCN)cc21 | > 80 µM |
| CCCCCCCCn1c2ccccc2c2ccc(Oc3ccccc3C(=O)O)cc21 | > 80 µM |
